Test system: HCT-116
Experiment: NCI tumour cell line growth inhibition, 48 h
Activity calls are given as the source filed them. Rule as the data show it: active = GI50 up to about 1.1 µM and inactive = higher.
For each record, write down the corresponding GI50.

Query: Name the recorded GI50 of the molecule listed here: CC1=CCC2(C#N)CCC1C2=O (stereo not drawn)
Response: > 100 µM (inactive)

Query: Name the recorded GI50 of the molecule listed here: C[n+]1c2ccccc2c(C(=O)NC(CCCNC(=N)N)C(=O)O)c2ccccc21 (stereo not drawn)
Response: > 100 µM (inactive)

Query: Name the recorded GI50 of the molecule listed here: CCOC(=O)C(=O)N1C(C)=C(C(=O)OCC)CC(C(=O)OCC)=C1C
Response: > 100 µM (inactive)

Query: Name the recorded GI50 of the molecule listed here: CO/C(N)=C(C#N)/N=C/c1cccs1
Response: 42.2 µM (inactive)

Query: Name the recorded GI50 of the molecule listed here: O=C(/C=C/c1cccc([N+](=O)[O-])c1)c1ccc([N+](=O)[O-])cc1
Response: > 100 µM (inactive)

Query: Name the recorded GI50 of the molecule listed here: COc1ccc(/C=C2\CCS(=O)(=O)c3ccccc3C2=O)cc1OC
Response: 28.1 µM (inactive)

Query: Name the recorded GI50 of the molecule listed here: Clc1nss/c1=N/c1nonc1-c1ccccc1
Response: 34.9 µM (inactive)

Query: Name the recorded GI50 of the molecule listed here: N#C/C(C(=O)CCl)=C1\Nc2ccccc2O1
Response: 3.43 µM (inactive)

Query: Name the recorded GI50 of the molecule listed here: CCCn1c2c(c3ccccc3c1=O)C(=O)c1ccccc1-2
Response: 25.2 µM (inactive)

Query: Name the recorded GI50 of the molecule listed here: NC(=O)/N=C1\NCCC(=O)N1CCc1c[nH]c2ccccc12
Response: 12.4 µM (inactive)

Query: Name the recorded GI50 of the molecule listed here: O=C(O)CCSC(=S)Nc1cccc(F)c1
Response: 97.3 µM (inactive)

Query: Name the recorded GI50 of the molecule listed here: O=C(c1ccccn1)c1nnn2ccccc12
Response: > 100 µM (inactive)

Query: Name the recorded GI50 of the molecule listed here: COc1ccc(C(OCC2OC(n3cc(C)c(=O)[nH]c3=O)CC2n2cc(Cn3cc(Cl)c(=O)[nH]c3=O)nn2)(c2ccccc2)c2ccccc2)cc1 (stereo not drawn)
Response: 33.9 µM (inactive)

Query: Name the recorded GI50 of the molecule listed here: CC12OC3(C(O)C1O)C(C(=O)O[C@H]3CO[Si](C)(C)C(C)(C)C)C2S(=O)(=O)c1ccccc1 (stereo partly drawn)
Response: 61.5 µM (inactive)

Query: Name the recorded GI50 of the molecule listed here: Cn1c(=O)c(NC(=O)C(Cl)(Cl)Cl)nc2ccccc21
Response: > 100 µM (inactive)

Query: Name the recorded GI50 of the molecule listed here: Cc1nnc(N)nc1/C=C\c1cccs1
Response: 17.3 µM (inactive)

Query: Name the recorded GI50 of the molecule listed here: C1=N\CCOCC/N=C/c2ccccc2OCc2cccc(n2)COc2ccccc2/1
Response: 4.99 µM (inactive)

Query: Name the recorded GI50 of the molecule listed here: COP1(=S)OCC2CCC[C@@H]2O1 (stereo partly drawn)
Response: > 100 µM (inactive)

Query: Name the recorded GI50 of the molecule listed here: N#Cc1ccc(-c2nc3c(N)ncnc3o2)cc1
Response: > 100 µM (inactive)

Query: Name the recorded GI50 of the molecule listed here: CSCCC(NC(=O)Cc1ccc(C(=O)c2ccccc2)cc1)C(=O)N1CCN(CCCCN2c3ccccc3Sc3cc(N=[N+]=[N-])ccc32)CC1 (stereo not drawn)
Response: 65.8 µM (inactive)

Query: Name the recorded GI50 of the molecule listed here: NCCSCCC(=O)O
Response: > 56.6 µM (inactive)

Query: Name the recorded GI50 of the molecule listed here: CCn1c(=O)c2c(=O)[nH][nH]c2c2ccccc21
Response: > 100 µM (inactive)

Query: Name the recorded GI50 of the molecule listed here: COc1cc(S(=O)(=O)Nc2ccc(-c3csc(N)n3)cc2)ccc1Cl
Response: 16.2 µM (inactive)

Query: Name the recorded GI50 of the molecule listed here: C1CCN(c2nsc(N3CCCCC3)n2)CC1
Response: > 100 µM (inactive)

Query: Name the recorded GI50 of the molecule listed here: COc1ccc(/C=C(\Cl)c2ccc(OC)cc2)cc1
Response: > 100 µM (inactive)

Query: Name the recorded GI50 of the molecule listed here: CC(C)CN(CC(C)C)C(=O)C1CCCC[C@@H]1C(=O)O (stereo partly drawn)
Response: > 100 µM (inactive)

Query: Name the recorded GI50 of the molecule listed here: O=C1OCC2(CO1)CC1C=CC2C1 (stereo not drawn)
Response: > 100 µM (inactive)

Query: Name the recorded GI50 of the molecule listed here: CC/C(CC(=O)CCC(=O)Nc1c(C)cccc1C)=N\NC(=O)NN
Response: > 100 µM (inactive)

Query: Name the recorded GI50 of the molecule listed here: Cc1cccc(C2SCc3nc4ccccc4n32)c1 (stereo not drawn)
Response: 17.7 µM (inactive)

Query: Name the recorded GI50 of the molecule listed here: CC1CC2CCCC(=O)C2=C(O)O1 (stereo not drawn)
Response: > 100 µM (inactive)

Query: Name the recorded GI50 of the molecule listed here: COc1ccc(C2C3COc4ccccc4C3=NN2c2ccccc2)cc1 (stereo not drawn)
Response: > 100 µM (inactive)

Query: Name the recorded GI50 of the molecule listed here: CC(=O)Nc1ccc2c(c1)nc1c3ccccc3ccn21
Response: 55.6 µM (inactive)

Query: Name the recorded GI50 of the molecule listed here: CC(C(=O)Oc1ccc2ccccc2c1-c1c(O)ccc2ccccc12)c1ccccc1 (stereo not drawn)
Response: 12.9 µM (inactive)

Query: Name the recorded GI50 of the molecule listed here: CCOC(=O)c1cccn1S(=O)(=O)c1cc(Cl)ccc1NC(=O)CC
Response: 40 µM (inactive)

Query: Name the recorded GI50 of the molecule listed here: O=Cc1cc(O)c(O)c(O)c1-c1c(C=O)cc(O)c(O)c1O
Response: > 100 µM (inactive)

Query: Name the recorded GI50 of the molecule listed here: Nc1ncnc2c1ccn2C/C=C\CO
Response: > 100 µM (inactive)

Query: Name the recorded GI50 of the molecule listed here: Nc1nc(-c2ccccc2)cc(-c2cc(Cl)ccc2O)n1
Response: 39.7 µM (inactive)

Query: Name the recorded GI50 of the molecule listed here: O=C(O)C(Br)C(Br)c1ccccc1[N+](=O)[O-] (stereo not drawn)
Response: > 100 µM (inactive)

Query: Name the recorded GI50 of the molecule listed here: C[P+]1(Cc2ccccc2)CCCC1
Response: > 100 µM (inactive)

Query: Name the recorded GI50 of the molecule listed here: Cc1cn(C2CC3C(COCN3O)O2)c(=O)[nH]c1=O (stereo not drawn)
Response: > 100 µM (inactive)

Query: Name the recorded GI50 of the molecule listed here: CC1=CC(=O)CCC2(C)C1CC[C@@H]2OC=O (stereo partly drawn)
Response: > 100 µM (inactive)

Query: Name the recorded GI50 of the molecule listed here: CC(=O)Nc1ccc(Cc2ccc3nc(O)cc(C)c3c2)cc1
Response: 83.8 µM (inactive)

Query: Name the recorded GI50 of the molecule listed here: O=C(O)c1nn(-c2ccccc2-c2nnc(O)nc2O)c(=O)[nH]c1=O
Response: > 100 µM (inactive)
